Taken from paper PMC3388883.

# Assay remarks: Cytotoxicity on MRC-5 cells (MTT assay)
# Format: cell-based
# Condition label: human, MRC-5 cells (human diploid embryonic cell line)
Readout name: IC50 at 7 days (mg/L)
Write the answer as a number in mg/L, unit excluded.

CC(=O)[C@]12O[C@]34[C@@H](CN([C@H](C(=O)NC(C)(C)C)c5cn(S(=O)(=O)c6ccccc6[N+](=O)[O-])c6ccccc56)C(=O)[C@@]3(C)CCCN4C1=O)C2(C)C [41b]    34.6
COc1ccc(CN2C(=O)[C@@]3(C)CCCN4C(=O)[C@]5(C(C)=O)O[C@@]43[C@@]3(c4ccccc4N(S(=O)(=O)c4ccccc4[N+](=O)[O-])[C@H]53)[C@@H]2C(=O)NC(C)(C)C)cc1 (racemic) [25a]    24.5
N=C(N)c1ccc(OCCCCCOc2ccc(C(=N)N)cc2)cc1 [pentamidine, reference compound]    5.71

Please turn your attention to the following entry.
Q. Form field: reported IC50 at 7 days of CC(=O)C12CC3CN(C(C(=O)NC(C)(C)C)c4cn(S(=O)(=O)c5ccccc5[N+](=O)[O-])c5ccccc45)C(=O)C4(C)CCCN(C1=O)C34O2 (stereo not drawn) [39b]
A. 4.02
